target: T1, human PD-L1/B7-H1 protein, with His tag (human, UniProt Q9NZQ7 19-238); experiment: SPR (Biacore T200), antibody captured on Protein A chip, response at 200 nM antigen
T1 construct: Bought protein
T1 sequence (Q9NZQ7 19-238 limits assumed): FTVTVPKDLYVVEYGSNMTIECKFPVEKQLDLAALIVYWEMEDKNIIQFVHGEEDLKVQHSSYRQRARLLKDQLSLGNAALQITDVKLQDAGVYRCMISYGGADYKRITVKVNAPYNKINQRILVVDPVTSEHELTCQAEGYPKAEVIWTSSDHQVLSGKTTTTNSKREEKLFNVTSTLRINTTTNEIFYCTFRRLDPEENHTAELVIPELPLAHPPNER
Reported metric: Response (RU)
Give bare numbers, in RU.

Q. Kindly indicate its recorded Response (RU). Item: 10F5 (antibody, human IgG1, kappa, V domains shown, also called Ab10F5) VH: QVQLVQSGAEVKKPGSSVKVSCKASGGTFSSQAISWVRQAPGQGLEWMGRIIPMLGIGDYAQSFQGRVTITADKSTSTAYLEVSSLGSEDTAVYYCAREGIAALGTNYYYGMDVWGQGTAVTVSS VL: EIVMTQSPSSVSASVGDRVTITCRASQGISRWLAWYQQKPGKAPKLLIYVASSLQSGVPSRFSGSGSGTDFTLTISSLQPEDFATYYCQQANSFPFTFGPGTKVDIRR
A. 0.5
